These entries and their values trace back to patent US20200223889A1.

This section presents molecules with their documented Ki values.
- subject of test: human MC4R (Homo sapiens, UniProt P32245)
- Construct: expressed in transfected cells
- Sequence (P32245 whole entry): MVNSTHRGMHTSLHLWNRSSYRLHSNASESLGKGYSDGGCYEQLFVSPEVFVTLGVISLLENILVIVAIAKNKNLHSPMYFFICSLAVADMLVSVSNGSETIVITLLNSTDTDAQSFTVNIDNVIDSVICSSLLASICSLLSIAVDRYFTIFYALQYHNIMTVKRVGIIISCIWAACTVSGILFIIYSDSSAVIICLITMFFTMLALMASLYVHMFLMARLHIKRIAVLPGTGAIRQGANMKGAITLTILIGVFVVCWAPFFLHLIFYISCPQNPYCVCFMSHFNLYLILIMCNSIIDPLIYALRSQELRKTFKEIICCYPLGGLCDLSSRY
- protocol summary: 125NDP-α-MSH competitive binding to membranes of BHK cells expressing human MC4 receptor (filtration assay)
- test conditions: human MC4R, BHK cell membranes, 125NDP-α-MSH radioligand; read-out: MC4R binding Ki
Positions of bridges follow the written chain, without caps; N, C: chain ends. Non-standard residues stand in square brackets, D forms with d. Residues, ends and D or L forms follow the SMILES beside them. Sar = CNCC(=O)O
Please respond with the number in nM and leave the unit unwritten.

Examples with answers:
**Q:** Give recorded Ki with human MC4R (Homo sapiens, UniProt P32245) for the following molecule: C[C@@H]1NC(=O)[C@@H]2CSSC[C@H](NC(=O)[C@H](Cc3c[nH]c4ccccc34)NC(=O)[C@H](CCCCN)NC(=O)[C@H](CCCCN)NC(=O)[C@H](CCCCN)NC1=O)C(=O)N(C)CC(=O)N[C@@H](Cc1c[nH]cn1)C(=O)N[C@H](Cc1ccccc1)C(=O)N[C@@H](Cc1c[nH]cn1)C(=O)N[C@@H](Cc1c[nH]c3ccccc13)C(=O)N2 [Chem. 73] (cyclo(AKKKWC[Sar]H[dF]HWC); disulfide 6-12)
**A:** 0.3

**Q:** Give recorded Ki with human MC4R (Homo sapiens, UniProt P32245) for the following molecule: C[C@@H]1NC(=O)[C@@H]2CSSC[C@H](NC(=O)[C@H](Cc3c[nH]c4ccccc34)NC(=O)[C@H](CCCCN)NC(=O)[C@H](CCCCN)NC(=O)[C@H](CCCCN)NC1=O)C(=O)N[C@@H](CCCCN)C(=O)N[C@@H](Cc1c[nH]cn1)C(=O)N[C@H](Cc1ccccc1)C(=O)N[C@@H](Cc1c[nH]cn1)C(=O)N[C@@H](Cc1c[nH]c3ccccc13)C(=O)N2 [Chem. 76] (cyclo(AKKKWCKH[dF]HWC); disulfide 6-12)
**A:** 0.09

**Q:** Give recorded Ki with human MC4R (Homo sapiens, UniProt P32245) for the following molecule: C[C@@H]1NC(=O)[C@@H]2CSSC[C@H](NC(=O)[C@H](Cc3c[nH]c4ccccc34)NC(=O)[C@H](CCCCNC(=N)N)NC(=O)[C@@H](Cc3ccccc3)NC(=O)[C@H](Cc3c[nH]cn3)NC1=O)C(=O)N[C@@H](C)C(=O)N[C@@H](Cc1c[nH]cn1)C(=O)N[C@H](Cc1ccccc1)C(=O)N[C@@H](CCCCNC(=N)N)C(=O)N[C@@H](Cc1c[nH]c3ccccc13)C(=O)N2 [Chem. 22]
**A:** 0.06

***
**Q:** Give recorded Ki with human MC4R (Homo sapiens, UniProt P32245) for the following molecule: C[C@@H]1NC(=O)[C@@H]2CSSC[C@H](NC(=O)[C@H](Cc3c[nH]c4ccccc34)NC(=O)[C@H](CCCCN)NC(=O)[C@H](CCCCN)NC(=O)[C@H](CCCCN)NC1=O)C(=O)N1CCC[C@H]1C(=O)N[C@@H](Cc1c[nH]cn1)C(=O)N[C@H](Cc1ccccc1)C(=O)N[C@@H](Cc1c[nH]cn1)C(=O)N[C@@H](Cc1c[nH]c3ccccc13)C(=O)N2 [Chem. 62] (cyclo(AKKKWCPH[dF]HWC); disulfide 6-12)
**A:** 0.13

====

- subject of test: human MC1R (Homo sapiens, UniProt Q01726)
- Construct: expressed in transfected cells
- Sequence (Q01726 whole entry): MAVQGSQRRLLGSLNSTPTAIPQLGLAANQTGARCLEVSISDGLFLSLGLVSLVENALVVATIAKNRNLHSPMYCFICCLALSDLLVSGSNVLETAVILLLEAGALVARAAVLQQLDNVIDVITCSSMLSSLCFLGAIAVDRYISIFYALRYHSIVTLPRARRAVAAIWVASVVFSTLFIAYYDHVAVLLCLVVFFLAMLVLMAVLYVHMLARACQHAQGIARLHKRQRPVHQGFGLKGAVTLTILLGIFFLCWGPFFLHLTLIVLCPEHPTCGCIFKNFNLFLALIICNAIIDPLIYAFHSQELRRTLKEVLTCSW
- protocol summary: Functional cAMP assay (CisBio HTRF) in BHK cells expressing human MC1R
- Format: cell-based
- test conditions: BHK cells expressing human MC1R; '>' = highest dose used with no response; read-out: MC1R cAMP EC50
Positions of bridges follow the written chain, without caps; N, C: chain ends. Non-standard residues stand in square brackets, D forms with d. Residues, ends and D or L forms follow the SMILES beside them. hCit = NC(=O)NCCCC[C@H](N)C(=O)O
This section presents compounds with their documented pEC50 values.
In simple prose, pEC50 is minus the logarithm base ten of a concentration in moles per litre.

**Q:** What value of measured pEC50 is listed for C[C@@H]1NC(=O)[C@@H]2CSSC[C@H](NC(=O)[C@H](Cc3c[nH]c4ccccc34)NC(=O)[C@H](CCCNC(=N)N)NC(=O)[C@@H](Cc3ccccc3)NC(=O)[C@H](Cc3c[nH]cn3)NC1=O)C(=O)N[C@@H](C)C(=O)N[C@@H](CCCCN)C(=O)N[C@@H](CCCCN)C(=O)N[C@@H](CCCCN)C(=O)N[C@@H](CCCNC(=N)N)C(=O)N2 [Chem. 59] (cyclo(AH[dF]RWCAKKKRC); disulfide 6-12) ?
**A:** 9.80

Below: the item to evaluate.
**Q:** What value of measured pEC50 is listed for C[C@@H]1NC(=O)[C@@H]2CSSC[C@H](NC(=O)[C@H](CCCNC(=N)N)NC(=O)[C@H](CCCCN)NC(=O)[C@H](CCCCN)NC(=O)[C@H](CCCCN)NC1=O)C(=O)N1CCC[C@H]1C(=O)N[C@@H](Cc1c[nH]cn1)C(=O)N[C@H](Cc1ccccc1)C(=O)N[C@@H](CCCCNC(N)=O)C(=O)N[C@@H](Cc1c[nH]c3ccccc13)C(=O)N2 [Chem. 99] (cyclo(AKKKRCPH[dF][hCit]WC); disulfide 6-12) ?
**A:** 8.28

====

- subject of test: human MC4R (Homo sapiens)
- Construct: expressed in transfected cells
- protocol summary: Functional cAMP assay (CisBio HTRF) in BHK cells expressing human MC4R
- Assay type: cell-based
- test conditions: BHK cells expressing human MC4R; '>' = highest dose used with no response; read-out: MC4R cAMP EC50
Starred links: 1 amine or outer side, 2 acyl side, 3 side chain; linkers in the order of their positions; H or OH if unused. Positions of bridges follow the written chain, without caps; N, C: chain ends. Non-standard residues stand in square brackets, D forms with d. Residues, ends and D or L forms follow the SMILES beside them. 1Nal = N[C@@H](Cc1cccc2ccccc12)C(=O)O; d(hCys) = N[C@H](CCS)C(=O)O; X1 = C(CN[*:2])CS[*:1]
This section presents compounds with their documented EC50 values.
Please respond with the number in pM and leave the unit unwritten.

Examples with answers:
**Q:** What value of measured EC50 is listed for C[C@@H]1NC(=O)[C@@H]2CSSC[C@H](NC(=O)[C@H](CCCNC(=N)N)NC(=O)[C@H](CCCCN)NC(=O)[C@H](CCCCN)NC(=O)[C@H](CCCCN)NC1=O)C(=O)N[C@@H](CCCCN)C(=O)N[C@@H](Cc1c[nH]cn1)C(=O)N[C@H](Cc1ccccc1)C(=O)N[C@@H](Cc1c[nH]cn1)C(=O)N[C@@H](Cc1c[nH]c3ccccc13)C(=O)N2 [Chem. 78] (cyclo(AKKKRCKH[dF]HWC); disulfide 6-12) ?
**A:** 40

**Q:** What value of measured EC50 is listed for CC(=O)N[C@@H](Cc1c[nH]cn1)C(=O)N[C@H](Cc1ccccc1)C(=O)N[C@@H](CCCNC(=N)N)C(=O)N[C@@H](Cc1c[nH]c2ccccc12)C(=O)N[C@H](C)C(=O)N[C@@H]1CCSSCCCNC(=O)[C@@H](C)NC(=O)[C@H](Cc2c[nH]c3ccccc23)NC(=O)[C@H](CCCNC(=N)N)NC(=O)[C@@H](Cc2ccccc2)NC(=O)[C@H](Cc2c[nH]cn2)NC1=O [Chem. 6] (Ac-H[dF]RW[dA][d(hCys)]H[dF]RW[dA]; linker 6-C via X1) ?
**A:** 60

***
**Q:** What value of measured EC50 is listed for C[C@@H]1NC(=O)[C@@H]2CSSC[C@H](NC(=O)[C@H](Cc3cccc4ccccc34)NC(=O)[C@H](CCCNC(=N)N)NC(=O)[C@@H](Cc3ccccc3)NC(=O)[C@H](Cc3c[nH]cn3)NC1=O)C(=O)N[C@@H](C)C(=O)N[C@@H](CCCCN)C(=O)N[C@@H](CCCCN)C(=O)N[C@@H](CCCCN)C(=O)N[C@@H](Cc1c[nH]c3ccccc13)C(=O)N2 [Chem. 64] (cyclo([1Nal]CAKKKWCAH[dF]R); disulfide 2-8) ?
**A:** 30

====

- subject of test: human MC4R (Homo sapiens, UniProt P32245)
- Construct: expressed in transfected cells
- protocol summary: 125NDP-α-MSH competitive binding to membranes of BHK cells expressing human MC4 receptor (filtration assay)
- test conditions: human MC4R, BHK cell membranes, 125NDP-α-MSH radioligand; read-out: MC4R binding Ki
- Description: In Vitro ^125NDP-α-MSH Binding to Recombinant BHK Cells Expressing Human MC4 Receptor (Filtration Assay) […] The BHK cell membranes were prepared from frozen or fresh cells that were homogenized in 20 mM HEPES pH 7.1, 5 mM MgCl2, 1 mg/ml bacitracin (buffer 1) and centrifuged at 15000 rpm at 4° C., 10 min in a Sorvall RC 5B plus, SS-34 rotor. […] The radioactivity retained on the filters was counted using a Packard Topcounter. […]
Starred links: 1 amine or outer side, 2 acyl side, 3 side chain; linkers in the order of their positions; H or OH if unused. Positions of bridges follow the written chain, without caps; N, C: chain ends. Non-standard residues stand in square brackets, D forms with d. Residues, ends and D or L forms follow the SMILES beside them. Agp = N=C(N)NC[C@H](N)C(=O)O; d(hCys) = N[C@H](CCS)C(=O)O; Aze = O=C(O)[C@@H]1CCN1; X1 = C(CN[*:2])CS[*:1]; Aib = CC(C)(N)C(=O)O
This section presents compounds with their documented Ki values.
Please respond with the number in nM and leave the unit unwritten.

Examples with answers:
**Q:** What value of measured Ki is listed for C[C@@H]1NC(=O)[C@@H]2CSSC[C@H](NC(=O)[C@H](Cc3c[nH]c4ccccc34)NC(=O)[C@H](CCCCN)NC(=O)[C@H](CCCCN)NC(=O)[C@H](CCCCN)NC1=O)C(=O)N1CC[C@H]1C(=O)N[C@@H](Cc1c[nH]cn1)C(=O)N[C@H](Cc1ccccc1)C(=O)N[C@@H](Cc1c[nH]cn1)C(=O)N[C@@H](Cc1c[nH]c3ccccc13)C(=O)N2 [Chem. 82] (cyclo(AKKKWC[Aze]H[dF]HWC); disulfide 6-12) ?
**A:** 0.07

**Q:** What value of measured Ki is listed for N=C(N)NCCC[C@@H]1NC(=O)[C@@H](Cc2ccccc2)NC(=O)[C@H](Cc2c[nH]cn2)NC(=O)CNC(=O)[C@@H]2CSSC[C@H](NC(=O)[C@H](Cc3c[nH]c4ccccc34)NC1=O)C(=O)NCC(=O)N[C@@H](Cc1c[nH]cn1)C(=O)N[C@H](Cc1ccccc1)C(=O)N[C@@H](CCCNC(=N)N)C(=O)N[C@@H](Cc1c[nH]c3ccccc13)C(=O)N2 [Chem. 2] (cyclo(CGH[dF]RWCGH[dF]RW); disulfide 1-7) ?
**A:** 0.07

**Q:** What value of measured Ki is listed for CC1(C)NC(=O)[C@@H]2CSSC[C@H](NC(=O)[C@H](Cc3c[nH]c4ccccc34)NC(=O)[C@H](CNC(=N)N)NC(=O)[C@@H](Cc3ccccc3)NC(=O)[C@H](Cc3c[nH]cn3)NC1=O)C(=O)NC(C)(C)C(=O)N[C@@H](Cc1c[nH]cn1)C(=O)N[C@H](Cc1ccccc1)C(=O)N[C@@H](CNC(=N)N)C(=O)N[C@@H](Cc1c[nH]c3ccccc13)C(=O)N2 [Chem. 43] (cyclo([Agp]WC[Aib]H[dF][Agp]WC[Aib]H[dF]); disulfide 3-9) ?
**A:** 2.61

***
**Q:** What value of measured Ki is listed for CC(=O)N[C@@H](C)C(=O)N[C@@H](Cc1c[nH]cn1)C(=O)N[C@H](Cc1ccccc1)C(=O)N[C@@H](CCCNC(=N)N)C(=O)N[C@@H](Cc1c[nH]c2ccccc12)C(=O)N[C@@H]1CCSSCCCNC(=O)[C@H](Cc2c[nH]c3ccccc23)NC(=O)[C@H](CCCNC(=N)N)NC(=O)[C@@H](Cc2ccccc2)NC(=O)[C@H](Cc2c[nH]cn2)NC(=O)[C@H](C)NC1=O [Chem. 3] (Ac-AH[dF]RW[d(hCys)]AH[dF]RW; linker 6-C via X1) ?
**A:** 0.42

**Q:** What value of measured Ki is listed for C[C@@H]1NC(=O)[C@@H]2CSSC[C@H](NC(=O)[C@H](Cc3c[nH]c4ccccc34)NC(=O)[C@H](CCCCN(C)C)NC(=O)[C@@H](Cc3ccccc3)NC(=O)[C@H](Cc3c[nH]cn3)NC1=O)C(=O)N[C@@H](C)C(=O)N[C@@H](Cc1c[nH]cn1)C(=O)N[C@H](Cc1ccccc1)C(=O)N[C@@H](CCCCN(C)C)C(=O)N[C@@H](Cc1c[nH]c3ccccc13)C(=O)N2 ?
**A:** 0.38
